Source of measurements: patent US8871934B2

- target desc: human PDHK2 (hPDHK2) (Homo sapiens (Human), UniProt Q15119)
- assay: Inhibitory action of PDHK activity in vitro (kinase reaction, residual PDH activity measured)
- Assay type: biochemical
- recorded conditions: PDHK inhibitory activity, class symbol of IC50
value type: IC50

> print(dat)
                                   compound  value.type        reported
1  COCc1cccc2c1-c1ccccc1C2(O)C(F)(F)F (stereo not shown) [compound 82]        IC50       > 1000 nM
2  CNc1ccc2c(c1)C(O)(C(F)(F)F)c1ccccc1-2 (stereo not shown) [compound 95]        IC50       > 1000 nM
3  O=C(O)c1ccc(-c2ccc3c(c2)C(O)(C(F)(F)F)c2ccccc2-3)cc1Cl (stereo not shown) [compound 238]        IC50  100 to 1000 nM
4  CC(C)(C)n1cc(-c2cccc3c2-c2ccccc2C3(O)C(F)(F)F)cn1 (stereo not shown) [compound 523]        IC50        < 100 nM

Would you mind listing IC50 for each of the following compounds?
1. O=C(c1ccc2c(c1)C(O)(C(F)(F)F)c1ccccc1-2)N1CCCCC1 (stereo not shown) [compound 52]
2. CCNC(=O)Cn1cc(-c2cccc3c2-c2ccccc2C3(O)C(F)(F)F)cn1 (stereo not shown) [compound 511]
3. CN(C)C1CCN(C(=O)c2ccc3c(c2)C(O)(C(F)(F)F)c2ccccc2-3)C1 (stereo not shown) [compound 216]
4. CC(=O)c1cc(C(=O)N2CCC2)cc2c1-c1ccccc1C2(O)C(F)(F)F (stereo not shown) [compound 122]
5. OC1(C(F)(F)F)c2ccccc2-c2c(Cl)cccc21 (stereo not shown) [compound 6]
6. OC1(C(F)(F)F)c2ccccc2-c2c(-c3cnco3)cccc21 (stereo not shown) [compound 92]
7. O=C1OCCN1CCOc1ccc2c(c1)C(O)(C(F)(F)F)c1ccccc1-2 (stereo not shown) [compound 459]

-- reply
1: > 1000 nM; 2: < 100 nM; 3: > 1000 nM; 4: < 100 nM; 5: > 1000 nM; 6: 100 to 1000 nM; 7: 100 to 1000 nM

---

- target desc: human PDHK2 (hPDHK2) (Homo sapiens (Human), UniProt Q15119)
- assay: Inhibitory action of PDHK activity in vitro (kinase reaction, residual PDH activity measured)
- Format: biochemical
- recorded conditions: read-out: PDHK inhibitory activity IC50
Exercise: for every item that follows, state its recorded pIC50.
Numbers only, as −log10 of the molar value.

Please review the entries below; each comes with its answer.
> print(dat)
                                   compound  reported
1  CC(=O)N(C)CCOc1cc(-c2cnn(C)c2)c2c(c1)C(O)(C(F)(F)F)c1ccccc1-2 (stereo not drawn) [compound 423]      7.68
2  CCOc1cccc2c1-c1ccccc1C2(O)C(F)(F)F (stereo not drawn) [compound 66]      4.18
3  Cc1cccc2c1-c1ncccc1C2(O)C(F)(F)F (stereo not drawn) [compound 15]      4.79
4  O=C(c1cc(CO)c2c(c1)C(O)(C(F)(F)F)c1ccccc1-2)N1CCCC1 (stereo not drawn) [compound 572]      6.96
5  CCn1cc(-c2cc(C(C)=O)c3c(c2)C(O)(C(F)(F)F)c2ccccc2-3)cn1 (stereo not drawn) [compound 587]      7.68
6  CC(C)(C)OC(=O)N1CCN(c2ccc3c(c2)C(O)(C(F)(F)F)c2ccccc2-3)CC1 (stereo not drawn) [compound 163]      6.63
7  Cc1noc(-c2cccc3c2-c2ccccc2C3(O)C(F)(F)F)n1 (stereo not drawn) [compound 142]      6.27
8  O=C(O)CCCn1cc(-c2cc(CO)cc3c2-c2ccccc2C3(O)C(F)(F)F)cn1 (stereo not drawn) [compound 623]      6.88

Quick request: pIC50 for each listed item, please.
1. CCc1cccc2c1-c1ccccc1C2(O)C(F)(F)F (stereo not drawn) [compound 25]
2. O=C(O)CCn1cc(-c2cccc3c2-c2ccccc2C3(O)C(F)(F)F)cn1 (stereo not drawn) [compound 485]
3. CC(=O)N(C)CCCOc1ccc2c(c1)C(O)(C(F)(F)F)c1ccccc1-2 (stereo not drawn) [compound 334]
4. COC(=O)C1CCN(c2ccc3c(c2)C(O)(C(F)(F)F)c2ccccc2-3)CC1 (stereo not drawn) [compound 218]
5. CCC(=O)c1cccc2c1-c1ccccc1C2(O)C(F)(F)F (stereo not drawn) [compound 81]

-- reply
4.51
6.93
6.17
5.74
5.56

Go through the items and report each one's pIC50.
1. COC(=O)c1ccc2c(c1)C(O)(C(F)(F)F)c1ccccc1-2 (stereo not drawn) [compound 23]
2. COC(=O)c1cc(C(=O)OC)c2c(c1)C(O)(C(F)(F)F)c1ccccc1-2 (stereo not drawn) [compound 50]

-- reply
1. 6.24
2. 7.00
